Ref: ChEMBL document CHEMBL3822428

Experiment: Antiproliferative activity in human […] cells assessed as cell growth inhibition after 48 hrs by SRB assay
Format: functional
Answer each item with its documented log10 of GI50.
Kindly note that the scale is log10 and the underlying GI50 is in nM.

// known answers, use as guide
>  <molecule_smiles>
COc1cc2c3c(n(CCCN4CCOCC4)c(=O)c2cc1OC(=O)c1cccnc1)-c1cc2c(cc1C3=O)OCO2

>  <readout_label>
log10 of GI50

>  <experimental_result>
1.18

$$$$
>  <molecule_smiles>
COc1cc2c(=O)n(CCCN3CCOCC3)c3c(c2cc1OC(=O)N(C)C)C(=O)c1cc2c(cc1-3)OCO2

>  <readout_label>
log10 of GI50

>  <experimental_result>
4.08

$$$$
>  <molecule_smiles>
COc1cc2c3c(n(CCCN4CCOCC4)c(=O)c2cc1OC(=O)N(C)C)-c1cc2c(cc1C3=O)OCO2

>  <readout_label>
log10 of GI50

>  <experimental_result>
2.02

$$$$

Return reported log10 of GI50 values for all items listed beneath this line.
1. COc1cc2c(=O)n(CCCN3CCOCC3)c3c(c2cc1O)C(=O)c1cc2c(cc1-3)OCO2
2. COc1cc2c3c(n(CCCN4CCOCC4)c(=O)c2cc1OC(C)=O)-c1cc2c(cc1C3=O)OCO2

# output
[2.94, 2.43]

# input log10 of GI50 lookup needed for COc1cc2c(=O)n(CCCN3CCOCC3)c3c(c2cc1OC(C)=O)C(=O)c1cc2c(cc1-3)OCO2 , thanks.
# output 2.14
